- measurement_target: CYP 2C19 (Homo sapiens)
- Sequence (P33261 whole entry): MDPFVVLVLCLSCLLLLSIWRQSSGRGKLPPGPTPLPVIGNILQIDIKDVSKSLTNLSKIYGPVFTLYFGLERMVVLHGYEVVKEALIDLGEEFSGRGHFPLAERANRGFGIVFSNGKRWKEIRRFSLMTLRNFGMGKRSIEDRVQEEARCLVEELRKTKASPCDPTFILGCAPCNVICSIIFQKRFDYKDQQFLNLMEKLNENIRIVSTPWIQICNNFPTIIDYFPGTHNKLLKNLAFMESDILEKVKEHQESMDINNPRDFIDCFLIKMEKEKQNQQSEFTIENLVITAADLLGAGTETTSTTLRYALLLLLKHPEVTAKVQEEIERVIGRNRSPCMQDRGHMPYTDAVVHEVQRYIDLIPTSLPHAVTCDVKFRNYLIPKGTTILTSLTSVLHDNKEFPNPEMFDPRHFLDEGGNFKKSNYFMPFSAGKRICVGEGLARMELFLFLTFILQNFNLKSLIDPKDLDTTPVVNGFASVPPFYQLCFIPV
- test_protocol: CYP inhibition with probe substrate
- Format: in vitro ADME
- cond: coincubation, probe substrate mephenytoin; read-out: Co- IC50
experimental_readout: IC50

# compound, result
data = [
    ("CC1CS(=O)(=O)CCN1n1cc(SCC(N)C(=O)O)ccc1=O (centres unmarked)", "> 20 µM"),
    ("CC1CS(=O)(=O)CCN1N (centres unmarked)", "> 100 µM"),
]

* * *

Parameter: AUC(0-t). Scope: all listed entries.
- test_protocol: Quantification of nifurtimox and metabolites in rat plasma after a single high dose (200 mg/kg)
- Assay type: in vivo, Wistar rats
- cond: male, Wistar, rat, plasma, po, 200 mg/kg; read-out: AUC(0–24), male animals
- Description: Blood cells and plasma were then separated by centrifugation, and the plasma was stored at ≤-15°C until required. For analysis, plasma samples were thawed at room temperature and homogenized by vortex mixing. […] The supernatant was analyzed using a 1290 Infinity LC system equipped with a diode array detector and an Orbitrap Q-Exactive Plus HRMS (Thermo Fisher Scientific, Bremen, Germany) with a heated electrospray ionization source. […]

# molecule, AUC(0-t)
records = [
    ("CC1CS(=O)(=O)CCN1N (stereo not shown) [M-6]", "78.4 µM·h"),
    ("CC1CS(=O)(=O)CCN1/N=C/c1ccc([N+](=O)[O-])o1 (stereo not shown) [Nifurtimox, reference compound]", "138 µM·h"),
    ("CC1CS(=O)(=O)CCN1n1cc(SCC(N)C(=O)O)ccc1=O (stereo not shown) [M-4]", "4.78 µM·h"),
    ("CC1CS(=O)(=O)CCN1/N=C/C(CCC(=O)O)=N\\O (stereo not shown) [M-2]", "3.31 µM·h"),
    ("CC1CS(=O)(=O)CCN1/N=C/C(=O)CCC(=O)O (stereo not shown) [M-3]", "3.64 µM·h"),
    ("CC1CS(=O)(=O)CCN1/N=C/C(=O)CCC#N (stereo not shown) [M-1]", "28.2 µM·h"),
    ("CC(=O)NC(CSc1ccc(=O)n(N2CCS(=O)(=O)CC2C)c1)C(=O)O (stereo not shown) [M-5]", "4.64 µM·h"),
]
